Assay: NCI Yeast Anticancer Drug Screen. Data for the mec2-1 strain (AID 157)
Conditions: S. cerevisiae mec2-1 strain, at 3.7 µM, active compounds read high
Compounds without any hit were thinned out: in the full panel of roughly 79,000, 15% have a hit.
metric-name: growth inhibition (%)
Could you give me the number in %? Just the number is fine.

Worked cases, answers included:
molecule	growth inhibition [%]
CSC(=S)N/N=C/c1ccccc1	13
N#CSCC1COc2ccccc2O1 (configuration not stated)	-33
NCCCSc1ccccc1	0

## Input # lookup: growth inhibition of "CN(C)CCNC(=Cc1ccc2ccccc2[n+]1C)NCCN(C)C"
## Output 0

## Input Same question for O=C(O)c1ccccc1C(=O)OC1CCc2ccccc2C1 (configuration not stated) please.
## Output -9

## Input Same question for "Cc1ccnc2c(O)cccc12" please.
## Output 98

## Input Same question for O=C1CC(C(O)(C(F)(F)F)C(F)(F)Cl)CCC1C(O)(C(F)(F)F)C(F)(F)Cl (configuration not stated) please.
## Output 56
